B1: CAMK2B (parent)
chain: YQQIKAGAYDFPSPEWDTVTPEAK

# Variants of: B1
# EXPERIMENT NOTES: protein stability index of a GFP-peptide fusion (GPS, HEK-293T) (PSI 1-6); higher = more stable;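 note: lentivirally expressed fusions sorted by FACS into six bins by GFP to DsRed ratio, PSI derived from sequencing read proportions per bin multiplied by bin number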
# CONDITION DESCRIPTION: c terminus: a fixed tail appended
Measured protein stability index values are reported for all entries that follow.
Answer as a number with no unit attached.

Use the examples below as a reference point.
1) P12M | 3.08
2) D17W | 2
3) A23P | 3.48
4) A6D | 4.28
5) P21E | 4.3
6) D10A | 2.72

# input I have this variant here, "P12L" , and I need its recorded protein stability index.
# output 2.9
